Source: patent EP4610269A1

Reported IC50 is given for each of the following compounds.
- Target Entity: uPAR-expressing HEC-265 human endometrial adenocarcinoma cells (Homo sapiens)
Where a SMILES comes first, the peptide text is derived from it. Bridges are numbered along the chain shown (N, C = ends). [ ]: non-standard residue; d: D form. The star is where a group is joined. Phe(4-Cl) = N[C@@H](Cc1ccc(Cl)cc1)C(=O)O; Hyp = O=C(O)[C@@H]1C[C@@H](O)CN1; Pentanoyl(4-Me) = CC(C)CCC(=O)*; Cit = NC(=O)NCCC[C@H](N)C(=O)O; Gly(cPr) = N[C@H](C(=O)O)C1CC1; Nva = CCC[C@H](N)C(=O)O; Pentanoyl = CCCCC(=O)*

Compound	IC50
CCCCC(=O)N[C@H]1CSSC[C@@H](C(N)=O)NC(=O)[C@H](CCC)NC(=O)[C@H](Cc2ccc(Cl)cc2)NC(=O)[C@@H]2C[C@@H](O)CN2C(=O)[C@@H]2CCCN2C(=O)[C@H](Cc2ccccc2)NC(=O)[C@H](Cc2ccc(O)cc2)NC(=O)[C@H](CCC(N)=O)NC(=O)[C@H](CCCNC(=N)N)NC1=O [UPAR-204] (Pentanoyl-CRQYFP[Hyp][Phe(4-Cl)][Nva]C-NH2; disulfide 1-10)	≤ 0.01 µM

Lab note: next compound to report on.
Query string: Field: IC50 (uPAR-expressing HEC-265 human endometrial adenocarcinoma cells (Homo sapiens)). Entry: CC(C)CCC(=O)N[C@H]1CSSC[C@@H](C(N)=O)NC(=O)[C@H](CC(C)C)NC(=O)[C@H](C2CC2)NC(=O)[C@@H](C)NC(=O)[C@@H]2CCCN2C(=O)[C@H](Cc2ccccc2)NC(=O)[C@H](Cc2ccc(O)cc2)NC(=O)[C@H](CCC(N)=O)NC(=O)[C@H](CCCNC(N)=O)NC1=O [UPAR-187] ({Pentanoyl(4-Me)}-C[Cit]QYFP[dA][Gly(cPr)]LC-NH2; disulfide 1-10)
Result string: ≥ 0.126 µM

====

Reported pIC50 is given for each of the following compounds.
- Target Entity: uPAR-expressing HEC-265 human endometrial adenocarcinoma cells (Homo sapiens, UniProt Q03405)
- Sequence (Q03405 23-335): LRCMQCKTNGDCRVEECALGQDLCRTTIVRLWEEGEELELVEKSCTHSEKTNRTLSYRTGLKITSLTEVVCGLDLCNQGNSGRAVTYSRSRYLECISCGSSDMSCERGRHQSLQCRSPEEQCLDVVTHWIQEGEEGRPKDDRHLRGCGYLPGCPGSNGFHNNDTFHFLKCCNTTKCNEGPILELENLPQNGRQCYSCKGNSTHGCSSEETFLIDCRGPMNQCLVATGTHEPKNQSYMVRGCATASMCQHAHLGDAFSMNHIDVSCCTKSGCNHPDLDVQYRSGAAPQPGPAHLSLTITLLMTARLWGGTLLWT
pIC50: −log10 of the molar value. *1 amine or outer side, *2 acyl side, *3 side chain or, on linkers, in order; H or OH if unused. Where a SMILES comes first, the peptide text is derived from it. Bridges are numbered along the chain shown (N, C = ends). Side-chain parts run from the residue outwards. [ ]: non-standard residue; d: D form. The star is where a group is joined. DOTA = O=C(O)CN1CCN(CC(=O)O)CCN(CC(=O)*)CCN(CC(=O)O)CC1; Pro(cis-4-F) = O=C(O)[C@@H]1C[C@H](F)CN1; Dopa = N[C@@H](Cc1ccc(O)c(O)c1)C(=O)O; Hyp = O=C(O)[C@@H]1C[C@@H](O)CN1; Pentanoyl(4-Me) = CC(C)CCC(=O)*; 2Thi = N[C@@H](Cc1cccs1)C(=O)O; Cit = NC(=O)NCCC[C@H](N)C(=O)O; NMeL = CN[C@@H](CC(C)C)C(=O)O; Butoxycarbonyl = CCCCOC(=O)*; Suc = O=C(CCC(=O)[*:2])[*:1]; Nle = CCCC[C@H](N)C(=O)O; Octanoyl = CCCCCCCC(=O)*; Nva = CCC[C@H](N)C(=O)O; Hexanoyl = CCCCCC(=O)*; Pentanoyl = CCCCC(=O)*

Compound	Value Reported
CCCCOC(=O)N[C@H]1CSSC[C@@H](C(N)=O)NC(=O)[C@H](CCC)NC(=O)[C@H]([C@@H](C)CC)NC(=O)[C@@H]2C[C@@H](O)CN2C(=O)[C@@H]2C[C@H](F)CN2C(=O)[C@H](Cc2ccccc2)NC(=O)[C@H](Cc2ccc(O)c(O)c2)NC(=O)[C@H](CCCCNC(=O)[C@@H](CC(=O)O)NC(=O)CN2CCN(CC(=O)O)CCN(CC(=O)O)CCN(CC(=O)O)CC2)NC(=O)[C@H]([C@@H](C)O)NC1=O [UPAR-459] (Butoxycarbonyl-CTK([dD-DOTA])[Dopa]F[Pro(cis-4-F)][Hyp]I[Nva]C-NH2; disulfide 1-10)	≥ 8.00
CCCCCCCC(=O)N[C@H]1CSSC[C@@H](C(N)=O)NC(=O)[C@H](CCC)NC(=O)[C@H]([C@@H](C)CC)NC(=O)[C@@H]2C[C@@H](O)CN2C(=O)[C@@H]2CCCN2C(=O)[C@H](Cc2ccccc2)NC(=O)[C@H](Cc2ccc(O)cc2)NC(=O)[C@H](CCC(N)=O)NC(=O)[C@H](CCCNC(=N)N)NC1=O [UPAR-193] (Octanoyl-CRQYFP[Hyp]I[Nva]C-NH2; disulfide 1-10)	≥ 8.00
CCCC[C@@H]1NC(=O)[C@H](CCCNC(=N)N)NC(=O)[C@@H](NC(=O)[C@H](CC(C)C)NC(=O)[C@H](CC(=O)O)NC(C)=O)CSSC[C@@H](C(N)=O)NC(=O)[C@H](CC(C)C)NC(=O)[C@H]([C@@H](C)CC)NC(=O)[C@H](C)NC(=O)[C@H]2CCCN2C(=O)[C@H](Cc2ccccc2)NC(=O)[C@H](Cc2ccc(O)cc2)NC1=O [UPAR-218] (Ac-DLCR[Nle]YF[dP]AILC-NH2; disulfide 3-12)	≤ 6.90
CCCCC(=O)N[C@H]1CSSC[C@@H](C(N)=O)NC(=O)[C@H](CCC)NC(=O)[C@H]([C@@H](C)CC)NC(=O)[C@@H]2C[C@@H](O)CN2C(=O)[C@@H]2CCCN2C(=O)[C@H](Cc2ccccc2)NC(=O)[C@H](CCCCN)NC(=O)[C@H](CCC(N)=O)NC(=O)[C@H](CCCNC(=N)N)NC1=O [UPAR-442] (Pentanoyl-CRQKFP[Hyp]I[Nva]C-NH2; disulfide 1-10)	7.00 to 7.40
CCCCCC(=O)N[C@@H](CC(=O)O)C(=O)N[C@@H](CC(C)C)C(=O)N[C@H]1CSSC[C@@H](C(N)=O)NC(=O)[C@H](CC(C)C)NC(=O)[C@H]([C@@H](C)CC)NC(=O)[C@H](CCCCNC(=O)CN2CCN(CC(=O)O)CCN(CC(=O)O)CCN(CC(=O)O)CC2)NC(=O)[C@@H]2CCCN2C(=O)[C@H](Cc2ccccc2)NC(=O)[C@H](Cc2ccc(O)cc2)NC(=O)[C@H](CCSC)NC(=O)[C@H](CCCNC(=N)N)NC1=O [UPAR-351] (Hexanoyl-DLCRMYFPK(DOTA)ILC-NH2; disulfide 3-12)	≥ 8.00

Query string: Tell me the measured pIC50 of CCC[C@H](NC(=O)CCC(=O)O)C(=O)N[C@H]1CSSC[C@@H](C(N)=O)NC(=O)[C@H](CCC)NC(=O)[C@H]([C@@H](C)CC)NC(=O)[C@@H]2C[C@@H](O)CN2C(=O)[C@@H]2CCCN2C(=O)[C@H](Cc2ccccc2)NC(=O)[C@H](Cc2ccc(O)cc2)NC(=O)[C@H](CCCCNC(=O)CN2CCN(CC(=O)O)CCN(CC(=O)O)CCN(CC(=O)O)CC2)NC(=O)[C@H](CCCNC(N)=O)NC1=O [UPAR-293] (Suc-[Nva]C[Cit]K(DOTA)YFP[Hyp]I[Nva]C-NH2; disulfide 2-11) , please.
Result string: ≥ 8.00

Query string: Tell me the measured pIC50 of CCC[C@@H]1NC(=O)[C@H]([C@@H](C)CC)NC(=O)[C@@H]2C[C@@H](O)CN2C(=O)[C@@H]2CCCN2C(=O)[C@H](Cc2ccccc2)NC(=O)[C@H](Cc2ccc(O)cc2)NC(=O)[C@H](CCC(N)=O)NC(=O)[C@H](CCCNC(=N)N)NC(=O)[C@@H](NC(=O)[C@H](CC(C)C)N(C)C(C)=O)CSSC[C@@H](C(N)=O)NC1=O [UPAR-483] (Ac-[NMeL]CRQYFP[Hyp]I[Nva]C-NH2; disulfide 2-11) , please.
Result string: ≥ 8.00

Query string: Tell me the measured pIC50 of CC[C@H](C)[C@@H]1NC(=O)[C@@H]2C[C@@H](O)CN2C(=O)[C@@H]2CCCN2C(=O)[C@H](Cc2ccccc2)NC(=O)[C@H](Cc2ccc(O)cc2)NC(=O)[C@H](CC(=O)O)NC(=O)[C@H](CCCNC(N)=O)NC(=O)[C@@H](NC(=O)CCC(C)C)CSSC[C@@H](C(N)=O)NC(=O)[C@H](CC(C)C)NC1=O [UPAR-410] ({Pentanoyl(4-Me)}-C[Cit]DYFP[Hyp]ILC-NH2; disulfide 1-10) , please.
Result string: ≥ 8.00

Query string: Tell me the measured pIC50 of CCCCOC(=O)N[C@H]1CSSC[C@@H](C(N)=O)NC(=O)[C@H](CCC)NC(=O)[C@H]([C@@H](C)CC)NC(=O)[C@@H]2C[C@@H](O)CN2C(=O)[C@@H]2CCCN2C(=O)[C@H](Cc2cccs2)NC(=O)[C@H](Cc2ccc(O)cc2)NC(=O)[C@H](CCCCNC(=O)CN2CCN(CC(=O)O)CCN(CC(=O)O)CCN(CC(=O)O)CC2)NC(=O)[C@H]([C@@H](C)O)NC1=O [UPAR-134] (Butoxycarbonyl-CTK(DOTA)Y[2Thi]P[Hyp]I[Nva]C-NH2; disulfide 1-10) , please.
Result string: ≥ 8.00
